- System: HIV-1 CAP210 pseudovirus
- assay_method_text: HIV-1 whole virus inhibition assay, CAP210 pseudovirus (luciferase, TZM-bl cells)
- Format: cell-based
- experimental_setup: TZM-bl, 48 h, read-out: IC50 (μM) CAP210, CAP210 pseudovirus, TZM-bl cells, 48 hours
observed_property: IC50
Answer with the figure and its unit, nothing else.

Field: example entries. Status: answers known.
molecule	system	observed_property	result
COc1ccc(OC)c(C(=O)c2coc3c2cc(OC)c2ccccc23)c1 [4c]	HIV-1 CAP210 pseudovirus	IC50	2.43 µM
COc1ccc(OC)c(-c2n[nH]cc2-c2cc(OC)c3ccccc3c2O)c1 [5c]	HIV-1 CAP210 pseudovirus	IC50	20.5 µM
COc1ccc(Br)cc1C(=O)c1coc2c1cc(OC)c1ccccc12 [4d]	HIV-1 CAP210 pseudovirus	IC50	3.28 µM

Please turn your attention to the following entry.
Exercise: Which measured IC50 value corresponds to COc1cc(F)ccc1-c1n[nH]cc1-c1cc(OC)c2ccccc2c1O [5e] ?
Solution: 29.1 µM

====

- assay_method_text: Cytotoxicity in TZM-bl cells by MTT assay
- Format: cell-based
- experimental_setup: human, MTT assay, 48 hours, mean ± SEM
Reported CC50 at 48 h values for a set of molecules
Express the result in µM but write the number alone.

Field: example entries. Status: answers known.
molecule_smiles	unit_annotation	recorded_number
COc1ccc(OC)c(C(=O)c2coc3c2cc(OC)c2ccccc23)c1	µM	9.65
COc1ccc(OC)c(C(=O)c2coc3cc(C)c(OC)c(C)c23)c1	µM	59.1
COc1ccc(OC)c(-c2n[nH]cc2-c2cc(O)ccc2O)c1	µM	142
COc1ccc(Br)cc1-c1n[nH]cc1-c1cc(OC)c2ccccc2c1O	µM	75

Exercise: Which measured CC50 at 48 h value corresponds to COc1ccc(C(=O)c2coc3ccc(O)cc23)c(OC)c1OC ?
Solution: 79.9

====

- System: HIV-1 CAP210 pseudovirus
- assay_method_text: HIV-1 whole virus inhibition assay, CAP210 pseudovirus (luciferase, TZM-bl cells)
- Assay type: cell-based
- experimental_setup: TZM-bl, 48 h, read-out: IC50 (μM) CAP210, CAP210 pseudovirus, TZM-bl cells, 48 hours
observed_property: log10 of IC50 (log10 of the value in µM)
The common logarithm of IC50 in µM is what is listed.

Exercise: State its log10 of IC50 on HIV-1 CAP210 pseudovirus: COc1ccc(OC)c(-c2n[nH]cc2-c2c(C)c(OC)cc(C)c2O)c1
Solution: 0.90

Exercise: And then COc1ccc(OC)c(C(=O)c2coc3ccc(O)cc23)c1 , what is it?
Solution: 0.65

Exercise: And then COc1cc(F)ccc1C(=O)c1coc2ccc(O)cc12 , what is it?
Solution: 1.05

Exercise: And then Cc1ccnc2c1NC(=O)c1cccnc1N2C1CC1 [NVP, nevirapine, reference compound] , what is it?
Solution: -1.00

====

- system: HIV-1 PR (Human immunodeficiency virus type 1 group M subtype B, UniProt P04585)
- Construct: 2 μL recombinant HIV-PR (0.2 μg mL^−1) was added only to reaction wells
- assay_method_text: HIV-1 protease inhibition assay (fluorogenic substrate)
- Type: biochemical
- experimental_setup: CC50 PBMCs / IC50 HIV-1 PR
observed_property: SI (HIV-1 PR)
Form field (numeric): enter value without unit.

molecule_smiles	system	SI (HIV-1 PR)
COc1ccc(C(=O)c2coc3ccc(O)cc23)c(OC)c1OC	HIV-1 PR (Human immunodeficiency virus type 1 group M subtype B, UniProt P04585)	1.3
COc1ccc(OC)c(C(=O)c2coc3c(C)cc(OC)c(C)c23)c1	HIV-1 PR (Human immunodeficiency virus type 1 group M subtype B, UniProt P04585)	0.7
COc1ccc(OC)c(-c2n[nH]cc2-c2cc(O)ccc2O)c1	HIV-1 PR (Human immunodeficiency virus type 1 group M subtype B, UniProt P04585)	1.6

Please turn your attention to the following entry.
Exercise: State its SI (HIV-1 PR) on HIV-1 PR (Human immunodeficiency virus type 1 group M subtype B, UniProt P04585): COc1cc(F)ccc1-c1n[nH]cc1-c1cc(O)ccc1O
Solution: 3.1

====

- system: HIV-1 PR (Human immunodeficiency virus type 1 group M subtype B)
- Construct: 2 μL recombinant HIV-PR (0.2 μg mL^−1) was added only to reaction wells
- assay_method_text: HIV-1 protease inhibition assay (fluorogenic substrate)
observed_property: IC50 (µM)
Express the result in µM but write the number alone.

molecule_smiles	recorded_number
COc1cc(F)ccc1-c1n[nH]cc1-c1cc(O)ccc1O	31.6
COc1ccc(OC)c(-c2n[nH]cc2-c2cc(O)ccc2O)c1	50.7
COc1ccc(OC)c(C(=O)c2coc3c(C)cc(OC)c(C)c23)c1	57.5

Exercise: Which measured IC50 value corresponds to COc1ccc(C(=O)c2coc3ccc(O)cc23)c(OC)c1OC ?
Solution: 70.9

====

Reported IC50 values for a set of compounds
- Test system: HIV-1 CAP210 pseudovirus
- assay_method_text: HIV-1 whole virus inhibition assay, CAP210 pseudovirus (luciferase, TZM-bl cells)
- Assay type: cell-based
- experimental_setup: TZM-bl, 48 h, read-out: IC50 (μM) CAP210, CAP210 pseudovirus, TZM-bl cells, 48 hours
- Description: The HIV pseudoviruses were produced from the plasmids that were kindly donated by Dr Mthunzi-Kufa (CSIR, South Africa). Competent DH5α cells and STBL2 cells were transformed with envelope (CAP210.2.00.E8 and Q23.17) and backbone plasmid (HIV-1 SG3 ΔEnv) through heat-shock at 42 °C for 90 seconds and cooled in ice for 5 minutes. […] The purity of the isolated plasmids was assessed for purity using Nanodrop. […]
Express the result in µM but write the number alone.

Field: example entries. Status: answers known.
molecule_smiles	recorded_number
COc1ccc(Br)cc1-c1n[nH]cc1-c1cc(OC)c2ccccc2c1O	20.8
COc1ccc(OC)c(C(=O)c2coc3cc(C)c(OC)c(C)c23)c1	8.12
COc1cc(F)ccc1C(=O)c1coc2c1cc(OC)c1ccccc12	4.27
COc1ccc(OC)c(-c2n[nH]cc2-c2c(O)cc(C)c(OC)c2C)c1	18.4

Exercise: Which measured IC50 value corresponds to COc1ccc(-c2n[nH]cc2-c2cc(O)ccc2O)c(OC)c1OC ?
Solution: 13.8

Reference for the values: paper PMC11883425
